FYI, the data here is from the supplement of paper PMC10567573.

protein stability index values for the sequences below.
Assay Explanation: protein stability index of a GFP-peptide fusion (GPS, HEK-293T) (PSI 1-6); higher = more stable;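 also: 24-mer peptide tiles fused after GFP, lentivirally expressed, FACS-sorted into six equal bins by GFP/DsRed ratio, decoded by Illumina sequencing, PSI is the read-weighted mean bin number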
Stated Conditions: treatment: MLN4924 1 uM, 8 h; c terminus: a fixed tail appended
The response must contain the number and no unit.

Task: I would be grateful if you could share the reported protein stability index for AGGHLAVVELLLAHGADPTHRLKD [ANKRD17] .
Output: 2.11

Task: I would be grateful if you could share the reported protein stability index for ENKPSTCSFSIERILGLDQKKDCV [HESX1] .
Output: 3.42

Task: I would be grateful if you could share the reported protein stability index for QELASLLRTYLARLPWAGQLTKEL [PBXIP1] .
Output: 2.72

Task: I would be grateful if you could share the reported protein stability index for IMNDLSNRVWSISQEPDPVQRLQA [TRIM14] .
Output: 3.16
